Test system: 786-0 renal
experiment: NCI tumour cell line growth inhibition, 48 h
measured_metric: TGI

Consider the compound shown here: CC1CC(C[N+](=O)[O-])CC2(C1)OCCO2 (stereo unspecified) What is its recorded TGI?
> 100 µM

Please look up its TGI: O=C(CCc1nc(=S)[nH][nH]1)Nc1cc(Cl)ccc1Cl
> 100 µM

Quick check: TGI of c1ccc(-c2csc3c2-n2cccc2C3N2CCCC2)cc1 (stereo unspecified) ?
> 100 µM

Look up TGI: O=Cc1c2c(cc3c1CC1(C3)Cc3cc4c(c(C=O)c3C1)CCCC4)CCCC2
> 31.6 µM

Quick one: TGI of O=C(NCCCCCCCCCCCCNC(=O)c1cnc2ccccc2n1)c1cnc2ccccc2n1 ?
> 100 µM

So what's the measured TGI for this one? O=C1C=CC2(CCCCCCC2=O)CC1 (stereo unspecified)
> 100 µM

----------
Tested on: OVCAR-4 ovarian
experiment: NCI tumour cell line growth inhibition, 48 h
measured_metric: TGI

// returns reported TGI for input CC1CC(=O)Nc2ccc(Cl)cc2N1C(=O)CN1CCC(CCCCN(C)C)CC1 (configuration not stated)
> 100 µM

# TGI lookup, item CC1(C)OB(c2ccc(N(CCOS(C)(=O)=O)CCOS(C)(=O)=O)cc2)OC1(C)C
> 86.6 µM

Requested field: TGI. Item: Cc1cc2c(cc1Cl)SC(N(c1ccccc1Cl)S(=O)(=O)c1ccc(Br)s1)=NS2(=O)=O
76.8 µM

For the molecule shown here, CN1CCN(CCCOc2cccc3nc(Nc4cc(Cl)cc(Cl)c4)ccc23)CC1 , give the reported TGI.
8.14 µM

I'd like to know its TGI. The molecule in question is Cc1c(C)c2c(c(C)c1OC(=O)CCC(=O)[O-])CCC(C)(CCCCCCCCCCC[P+](c1ccccc1)(c1ccccc1)c1ccccc1)O2 (configuration not stated)
0.891 µM

# query: TGI of entry COc1ccc(-c2nn(-c3cccc(Cl)c3)cc2/C=C2\NC(=S)N(c3ccc(Cl)cc3)C2=O)cc1
7.45 µM

Quick check: TGI of O=C(Nc1ccccc1)c1cc2ccccc2c(N=Nc2cccc([N+](=O)[O-])c2)c1O ?
> 100 µM

// TGI lookup, key: c1ccc2c(c1)[nH]c1cnc3c4ncccc4[nH]c3c12
> 100 µM

Requested field: TGI. Item: Oc1ccc(-c2c3ccccc3c(-c3ccc(O)cc3)c3ccccc23)cc1
> 100 µM

What does the record list as TGI for CC(=O)Nc1ccccc1-c1nc2ccccc2nc1-c1ccccc1 ?
> 100 µM

Which measured TGI value corresponds to OC1(c2ccccc2)CC2CCC(C1)N2CCCC(O)(c1ccccc1)c1ccccc1 (configuration not stated) ?
> 100 µM

Could you tell me which TGI is on file for Cc1ccc(Nc2c3c(c(C#N)c4nc5ccccc5n24)CCCC3)cc1 ?
> 100 µM

TGI lookup needed for C[C@@H](O)[C@@H](C)Oc1nc(Nc2ccc(S(=N)(=O)C3CC3)cc2)ncc1C(F)(F)F (some centres not stated) , thanks.
26.9 µM

// returns reported TGI for input COc1ccc(/C=C2/N=C(N/N=C\C(O)C(O)C(O)CO)NC2=O)cc1 (configuration not stated)
> 100 µM

Fill blank: measured TGI of the molecule COc1ccc2c(c1)CC[C@@H]1[C@@H]2CC[C@]2(C)/C(=N/OCCN3CCCC3)CC[C@@H]12 is ____.
24.3 µM

Consider the molecule Oc1cc(O)c2c(c1)O[C@H](c1ccc(O)c(O)c1)[C@@H](O)C2 and give its measured TGI.
> 100 µM

Which TGI is reported for this molecule? C[C@@H]1CC[C@H]2[C@@H](C)C(O)O[C@@H]3O[C@]4(C)CC[C@@H]1[C@]32OO4 (some centres not stated)
> 56.7 µM

Entry COc1ccc(C(=O)/C=C/c2sc(Cl)nc2Cl)cc1 : reported TGI = ?
20.2 µM

Given the entry Cc1nc2ccccn2c1NC(=O)NN1C(=O)CSC1c1ccc(Cl)cc1 (configuration not stated) , report its measured TGI.
> 100 µM

Which TGI reading was recorded for the molecule Cc1ccsc1/C=N/NC1=NCCN1 ?
> 100 µM

If you can, please state the reported TGI value of O=C1OC(CC(=O)c2ccc(F)cc2)C(Cl)=C1Cl (configuration not stated) .
43.5 µM

Entry C=CCn1c(-c2cc(C(C)(C)C)c(O)c(C(C)(C)C)c2)cs/c1=N\C(P(=O)(O)O)P(=O)(O)O : reported TGI = ?
> 100 µM

Using the record for CC(=O)NNc1nc(C)c(C(=O)NNC(=O)C(=O)Nc2ccc(Cl)c([N+](=O)[O-])c2)s1 , report its TGI.
> 100 µM

GET /values?readout=TGI&item= O=c1oc2ccc([N+](=O)[O-])cc2nc1/C=C(\O)c1ccccc1
> 100 µM

I have this molecule here, Cc1ccccc1NC(=O)CC1C(=O)Nc2ccccc2S1=O (configuration not stated) , and I need its recorded TGI.
> 100 µM

Bench note: what TGI did O=C(Nc1cccc(C(F)(F)F)c1)C(=O)C(C(=O)c1ccc(Cl)c(Cl)c1)C1OC(=O)c2ccccc21 (configuration not stated) show?
> 100 µM

Query (molecule): COc1ccc(-c2nc(-c3ccc(OC)cc3)n(-c3ccccc3)n2)cc1 ; field requested: TGI
> 100 µM
